Biological target: T1, GPC3 endogenously expressed on HepG2 cells (UniProt P51654 25-554)
T1 construct: whole, on cells
Assay: FACS on HepG2 cells;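 further: flow cytometric binding of chimeric antibodies to cells, read as mean fluorescence intensity, EC50 obtained by curve fitting of the MFI data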
attribute_measured: Max MFI (MFI)
The response must be a number in MFI with no trailing unit.

Ask | Given the binder F4.18.4 human-murine chimeric antibody (antibody, human IgG1, kappa, V domains shown) VH: QVQLHQSGAEMAKPGASVNLSCKTSGFTFTDYGISWVKQRTRQGLEWIGDIYPRHINIYYNEKFKDKATLTADRSSSTAYMELRSMTSEDSAVYFCARRGTTGRGALDYWGQGTSLTVSS VL: DILLTQSPAILSVSPGERVSFSCRASQSIGTSIHWYQQRTNGSPRLLIKYAFESISGIPSRFGGSGSRTDFTLTINSVESEDIADYYCQQTYNWPYTFGGGTKLEIKR , what is its reported Max MFI?
Reply | 1390

Ask | Query (binder): F4.21.16 human-murine chimeric antibody (antibody, human IgG1, kappa, V domains shown) VH: DVQLQESGPGLVKPSQSLSLTCSVTGYSITSGYYWNWIRQFPGNKLEWMGYISYDVTVNYNPSLKNRISITRDTSKNQFFLKLNSVTTEDTATYYCATITSVASMDHWGQGTSVTVSS VL: DILMTQTPLSLPVSLGDQASISCRSSQNIVHRNGNTYLEWYLQKPGQSPKLLLYKVSNRFSGVPDRFSGSGSGTDFTLKISRVEAEDLGIYYCFQGSHFPFTFGSGTKLEIKR ; field requested: Max MFI
Reply | 1710

Ask | // Max MFI lookup, key: F1.3.9 human-murine chimeric antibody (antibody, human IgG1, kappa, V domains shown) VH: QVQLQQPGTELVKPGASVKLSCKASGYTFTSYWIHWVKQRPGQGLEWIGNINPPNAGTNYNEKFKSKATLTVDKSSSTAYMQLSSLTSEDSAVYYCARGRWLLHDYWGQGTTLTVSS VL: DIQMTQSPASLSISVGETVTITCRASENIYSNLAWYQQKQGKSPQLLVYGTKNLAEGVPSRFSGSGSGTQYSLKINSLQSEDFGNYYCQHFWGTPYTFGGGTKLEILR
Reply | 3810

Ask | Bench note: what Max MFI did F2.169.2 human-murine chimeric antibody (antibody, human IgG1, kappa, V domains shown) VH: EVQLVETGGGLVQPKGSLKLSCAASGFSFNTNAMNWVRQAPGKGLEWVARIRSKSNNYATYYADSVKDRFTISRDDSQSMLYLQMNNLKTEDTAMYYCVRDGYYVLFAYWGQGTLVTVSA VL: DVLMTQTPLSLPVSLGDQASISCRFSQSIVNSNGNTYLEWFLQKPGQSPKLLIYKVSNRFSGVPDRFSGSGSGTDFTLKISRVEAEDLGVYYCFQGSHVPFTFGTGTKLEIKR show?
Reply | 3980

Ask | Any idea what its Max MFI is? The binder is F1.73.9 human-murine chimeric antibody (antibody, human IgG1, kappa, V domains shown) VH: QVQLKQSGAELVRPGASVKLSCKASGYTFTDYYINWVKQRPGQGLEWIARIYPGSGNTYYNEKFKGKATLTAEKSSSTAYMQFSSLTSEDSAVYFCACSTYYTMDYWGQGTSVTVSS VL: QIVLTQSPAIMSASLGERVTMTCTASSGVSSSYLHWYQQKPGSSPKLWIYTTSNLASGVPARFSGSGSGTSYSLTISSMEAEDAATYYCHQYHRSPYTFGGGTKLEIKR
Reply | 1880

Ask | Fill blank: measured Max MFI of the binder F2.152.3 human-murine chimeric antibody (antibody, human IgG1, kappa, V domains shown) VH: EVQLQQSGPELVKPGASVKMSCKASGYTFTDYYMTWVKQSHGKSLEWIGRVNPRNGDTTYNQKFEGRATLTLDKSLSTAFMQLNSLTSEDSAVYYCINSKGHFDYWGQGTTLTVSS VL: DVLMTQTPLSLPVSLGDQASISCRSSQSIVHSNGNTYLEWFLQKPGQSPKSLIYKVSNRFSGVPDRFSGSGSGTDFTLKISRVEAEDLGVYYCFQGSHVPPTFGAGTKLELKR is ____.
Reply | 4490

Ask | Need Max MFI, item F1.41.17 human-murine chimeric antibody (antibody, human IgG1, kappa, V domains shown) VH: EVQLVESGGDSVKPGGSLKLSCAASGFTFSSYGMSWVRQTPDKRLEWVATINSGGSYTYYQDSVKGRFTISRDNAKNTLYLQMSSLKSEDTAIYYCVRHHYGSSYDYFDYWGQGTTLTVSS VL: DIVMTQAAPSVPVMPGESVSISCRSSKSLLHSNGNTHLYWFLQRPGQSPQLLIYRMSNLASGVPDRFSGSGSGTAFTLRISRVEAEDVGVYYCMQHLEYPLTFGAGTKLELKR
Reply | 1990

Ask | Quick check: Max MFI of F1.2.14 human-murine chimeric antibody (antibody, human IgG1, kappa, V domains shown) VH: RVQLQQSGAELVKPGASVRMSCKASGYTFTAYSIEWMKQNLGKSLEWIGNFRPYNDDTKYNENFKGRATLTVEKSSATVYLELSRLTSDDSAVYYCARSGPTDYFDYWGQGTTLIVSS VL: DIQMTQSPASLSASVGETVTITCRASDNIYSYLAWYQQKQGQSPQLLVYNAKTLAEGVPSRFSGSGSVTQFSLKIISLQPEDFGTYYCQHHFGTPRTFGGGTKLEIKR ?
Reply | 1860

Ask | What value of Max MFI has been reported for the following binder? F1.57.21 human-murine chimeric antibody (antibody, human IgG1, kappa, V domains shown) VH: QVQLQQSGAELARPGASVKLSCKASGYTFTSYGISWVKQITGQGLEWIGEIYPRSESTYYNEKFKGKATLTADKSSSTAYMELRSLTSEDSAVYFCARDYGNIYSFAYWGQGTLVTVSA VL: DIQMTQSPASLSASVGETVTITCRTSENIYSYLAWYQQKQGKSPQLLVYNAKTLAEGVPSRFSGSGSGTQFSLKINSLQPEDFGSYYCQHHYGTPLTFGAGTKLELKR
Reply | 1650

Ask | Which Max MFI is listed for F2.154.1 human-murine chimeric antibody (antibody, human IgG1, kappa, V domains shown) VH: QVQLQQSGAELVRPGASVKLSCKASGYRFTDYEMHWVKQTPVHGLEWIGTIDPETGNTAYTQKFMDKATLTADKSSSTAYMELRSLTSEDSAVYYCTRGYSFTYWGQGTLATVSA VL: DVLMTQTPLSLPVSLGDQASISCRSSQNIVHSNGNTYLQWYLQKPGQSPKLLIFKVSNRFSGVPDRFSGSGSGTDFTLKISRVEAEDLGVYYCFQGSHVPFTFGTGTKLEIKR ?
Reply | 5450

Origin of values: patent US20260116991A1
